Reported Remaining % (60 min) by item:
Assay: Metabolic stability in human liver microsomes
Assay type: in vitro ADME
Details: human liver microsomes 0.5 mg/mL, compound 1 μmol/L, 37° C., 60 min
Protocol: Testing on Metabolic Stability of Compounds in Human Liver Microsomes […] The concentration of the compound at 0 min incubation was regarded as 100%, and the concentrations at other incubation time points were converted into the remaining percentages. The natural logarithm of the remaining percentage at each time point was linearly regressed against the incubation time, and the slope k was calculated. According to the formula T1/2=−0.693/k, the in vitro half-life was calculated. […]
Remember to follow the number with its unit.

COMPOUND	MEASURE NAME	VALUE OBSERVED
CN1CCc2ncc(F)cc2[C@H]2CCCN2c2ccn3ncc(c3n2)C(=O)N1 [Example 4]	Remaining % (60 min)	88.39%
C[C@@H]1CCc2ncc(F)cc2[C@H]2CCCN2c2ccn3ncc(c3n2)C(=O)N1 [LOXO-195, reference compound]	Remaining % (60 min)	6.70%
O=C(Nc1cnn2ccc(N3CCC[C@@H]3c3cc(F)ccc3F)nc12)N1CC[C@H](O)C1 [LOXO-101, reference compound]	Remaining % (60 min)	47.78%

State, in one line, measured Remaining % (60 min) of O=C1NN(C2CC2)CCc2ncc(F)cc2[C@H]2CCCN2c2ccn3ncc1c3n2 [Example 1]
52.26%

---

biological target: TrkA (Homo sapiens)
Sequence (P04629 33-796, species assumed): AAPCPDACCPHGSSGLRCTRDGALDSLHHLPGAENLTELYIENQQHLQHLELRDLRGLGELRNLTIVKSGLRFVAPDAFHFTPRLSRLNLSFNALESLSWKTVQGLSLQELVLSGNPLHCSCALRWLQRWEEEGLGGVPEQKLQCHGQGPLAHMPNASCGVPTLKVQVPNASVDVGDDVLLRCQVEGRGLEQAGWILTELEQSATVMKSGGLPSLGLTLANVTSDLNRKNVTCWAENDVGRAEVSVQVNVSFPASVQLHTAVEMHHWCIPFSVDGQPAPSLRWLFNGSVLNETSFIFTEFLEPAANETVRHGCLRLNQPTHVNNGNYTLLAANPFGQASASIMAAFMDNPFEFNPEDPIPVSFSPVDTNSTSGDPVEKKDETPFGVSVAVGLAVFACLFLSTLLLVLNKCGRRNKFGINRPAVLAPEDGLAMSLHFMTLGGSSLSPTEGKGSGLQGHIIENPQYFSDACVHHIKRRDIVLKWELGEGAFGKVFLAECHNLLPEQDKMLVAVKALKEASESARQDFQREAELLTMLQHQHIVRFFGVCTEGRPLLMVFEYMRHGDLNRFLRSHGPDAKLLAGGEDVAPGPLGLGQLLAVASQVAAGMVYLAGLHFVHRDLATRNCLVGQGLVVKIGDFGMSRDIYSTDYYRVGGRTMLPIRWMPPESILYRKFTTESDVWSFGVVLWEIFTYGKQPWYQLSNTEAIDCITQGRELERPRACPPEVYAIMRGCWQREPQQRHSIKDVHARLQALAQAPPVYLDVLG
Here, each record is paired with measured pIC50 data.
For clarity, pIC50 is expressed as the negative log10 of concentration in mol/L.

Below: 3 compounds and their reported pIC50.
COMPOUND	EXPERIMENTAL SYSTEM	pIC50
CCN1CCc2ncc(F)cc2[C@H]2CCCN2c2ccn3ncc(c3n2)C(=O)N1	TrkA (Homo sapiens)	8.10
CCN1NC(=O)c2cnn3ccc(nc23)N2CCC[C@@H]2c2cc(F)cnc2CC1C (single isomer, unassigned) [Example 8a]	TrkA (Homo sapiens)	8.40
CC(C)N1CCc2ncc(F)cc2[C@H]2CCCN2c2ccn3ncc(c3n2)C(=O)N1	TrkA (Homo sapiens)	8.68

For the next question, use this compound.
State pIC50 on TrkA (Homo sapiens). Entry: "CN1CCc2ncc(F)cc2[C@H]2CCCN2c2ccn3ncc(c3n2)C(=O)N1"
7.90

src = patent US11597729B2
